Target: UniProt P42336
Sequence (P42336 whole entry, looked up): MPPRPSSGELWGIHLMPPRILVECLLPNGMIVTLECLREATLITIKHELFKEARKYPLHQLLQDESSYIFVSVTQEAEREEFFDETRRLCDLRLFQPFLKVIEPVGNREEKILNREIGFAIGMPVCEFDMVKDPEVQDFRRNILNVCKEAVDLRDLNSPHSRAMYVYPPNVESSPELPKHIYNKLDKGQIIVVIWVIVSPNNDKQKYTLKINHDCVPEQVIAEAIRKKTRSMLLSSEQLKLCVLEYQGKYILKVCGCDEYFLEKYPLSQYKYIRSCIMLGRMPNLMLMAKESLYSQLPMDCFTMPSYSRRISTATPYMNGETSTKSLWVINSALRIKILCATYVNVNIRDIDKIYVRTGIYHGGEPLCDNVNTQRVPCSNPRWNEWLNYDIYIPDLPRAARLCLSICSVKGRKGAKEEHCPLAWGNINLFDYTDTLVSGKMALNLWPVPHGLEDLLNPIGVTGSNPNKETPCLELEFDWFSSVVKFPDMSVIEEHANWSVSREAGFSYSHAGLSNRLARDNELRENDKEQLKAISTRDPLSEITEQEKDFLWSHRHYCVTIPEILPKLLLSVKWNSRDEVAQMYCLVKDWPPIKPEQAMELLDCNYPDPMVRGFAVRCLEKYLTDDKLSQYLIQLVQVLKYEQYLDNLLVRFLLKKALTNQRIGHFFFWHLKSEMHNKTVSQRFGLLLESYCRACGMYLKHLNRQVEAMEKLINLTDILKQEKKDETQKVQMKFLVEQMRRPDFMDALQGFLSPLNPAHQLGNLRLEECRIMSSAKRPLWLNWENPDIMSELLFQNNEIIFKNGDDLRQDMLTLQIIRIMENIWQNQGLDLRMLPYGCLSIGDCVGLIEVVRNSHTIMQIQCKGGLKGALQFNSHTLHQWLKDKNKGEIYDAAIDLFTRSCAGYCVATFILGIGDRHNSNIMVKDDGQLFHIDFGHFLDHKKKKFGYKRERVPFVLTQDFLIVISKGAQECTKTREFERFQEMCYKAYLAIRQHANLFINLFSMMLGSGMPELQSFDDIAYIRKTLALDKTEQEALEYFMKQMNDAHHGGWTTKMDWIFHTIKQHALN
measured quantity: IC50 (nM)
Answers are plain numbers, in nM.

**Q:** Item Cc1ccc(S(=O)(=O)NCC(C)(C)O)cc1-c1cnc(N)c(-c2cnc(C3CC3)o2)c1 has what recorded IC50?
**A:** 280

###

Molecular target: PIK3CB (Human)
measured quantity: IC50 (µM)
Numbers only, in µM.

**Q:** Form field: IC50 recorded for Cc1ccc(S(=O)(=O)NCC(C)(C)O)cc1-c1cnc(N)c(-c2cnc(C3CC3)o2)c1 with PIK3CB (Human) (enter value)
**A:** 1.3

Measured values drawn from the Kinase Knowledgebase extract (Sharma et al. 2016) for this set.
